Experiment: Cmax in Sprague-Dawley rat at 3 mg/kg, po
Type: ADME, organism-based
Parameters: dose 3 mg/kg, route oral
Conditions: in vivo
Reported Endpoint: Cmax (ng/mL)

{"columns": ["Sample Smiles", "Reported Endpoint", "Test Result"],
 "data": [
  ["CCc1nc(C(N)=O)c(Nc2ccc3c(c2)CCN(C2CCCC2)CC3)nc1NC1CCOCC1", "Cmax", 23.8]
]}

====

Assay: Oral bioavailability in Sprague-Dawley rat at 3 mg/kg
Type: ADME, organism-based
Conditions: in vivo

{"columns": ["Sample Smiles", "bioavailability"],
 "data": [
  ["CCc1nc(C(N)=O)c(Nc2ccc3c(c2)CCN(C2CCCC2)CC3)nc1NC1CCOCC1", "24.8%"]
]}

====

Assay: Half life in Sprague-Dawley rat at 1 mg/kg, iv
Assay type: ADME, organism-based
Conditions: in vivo

{"columns": ["Sample Smiles", "half-life / h"],
 "data": [
  ["CCc1nc(C(N)=O)c(Nc2ccc3c(c2)CCN(C2CCCC2)CC3)nc1NC1CCOCC1", 2.12]
]}

====

Assay: AUC (0 to infinity) in Sprague-Dawley rat at 3 mg/kg, po
Type: ADME, organism-based
Design: dose 3 mg/kg, time infinity, route oral
Settings: in vivo
Reported Endpoint: AUC(0-inf) (ng·h/mL)

{"columns": ["Sample Smiles", "Test Result"],
 "data": [
  ["CCc1nc(C(N)=O)c(Nc2ccc3c(c2)CCN(C2CCCC2)CC3)nc1NC1CCOCC1", 199]
]}

====

Test: Clearance in Sprague-Dawley rat at 1 mg/kg, iv
Assay type: ADME, organism-based
Settings: in vivo
Reported Endpoint: clearance (mL/min/kg)

{"columns": ["Sample Smiles", "Test Result"],
 "data": [
  ["CCc1nc(C(N)=O)c(Nc2ccc3c(c2)CCN(C2CCCC2)CC3)nc1NC1CCOCC1", 93.2]
]}
